Origin of values: patent US20200121803A1

Target: T1, human CD98, endogenously expressed on Molt-4 human acute lymphoblastic leukemia cells (human)
T1 chain: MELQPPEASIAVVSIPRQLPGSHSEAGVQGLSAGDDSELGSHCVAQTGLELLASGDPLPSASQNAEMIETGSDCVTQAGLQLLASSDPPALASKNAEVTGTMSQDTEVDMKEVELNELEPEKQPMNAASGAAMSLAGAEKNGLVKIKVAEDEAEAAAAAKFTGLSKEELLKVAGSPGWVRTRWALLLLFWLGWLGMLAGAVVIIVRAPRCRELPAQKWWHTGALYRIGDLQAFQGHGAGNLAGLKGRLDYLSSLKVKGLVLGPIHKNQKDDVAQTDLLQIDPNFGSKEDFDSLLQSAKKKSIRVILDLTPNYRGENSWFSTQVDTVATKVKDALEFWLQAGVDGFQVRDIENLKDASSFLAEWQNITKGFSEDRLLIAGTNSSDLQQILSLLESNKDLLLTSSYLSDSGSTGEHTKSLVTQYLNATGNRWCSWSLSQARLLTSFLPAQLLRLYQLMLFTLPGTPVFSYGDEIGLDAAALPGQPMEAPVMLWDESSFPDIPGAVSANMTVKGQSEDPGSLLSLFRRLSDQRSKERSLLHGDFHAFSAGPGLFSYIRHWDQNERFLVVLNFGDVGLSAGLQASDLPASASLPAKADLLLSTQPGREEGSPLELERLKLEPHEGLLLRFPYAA
Assay: cell-based or functional assay
MEASURED_QUANTITY: % Cell Viability at 50 nM (%)
One number for each entry, in %.

{"columns": ["BINDER", "UNIT_OF_MEASURE", "% Cell Viability at 50 nM"],
 "data": [
  ["CD98 (CL-huAb102)-ZZ (antibody, human IgG1, kappa, L234A L235A, V domains shown, synthon ZZ on reduced interchain cysteines (sites not given)) VH: EVQLVESGGGLVQPGGSLRLSCATSGFTFIDYYMSWVRQAPGKGLEWLGFIRNKANRYTTEYSASVKGRFTISRDNSKSILYLQMNSLKTEDTAVYYCTRDRPAWFVYWGQGTLVTVSS VL: DIVMTQTPLSLPVTPGEPASISCKSSQSLLYSSNQKNYLAWYLQKPGQSPQLLIYWASTRESGVPDRFSGSGSGTDFTLKISRVEAEDVGVYYCQQYYSYPYTFGGGTKVEIKR", "%", 6.3]
]}

Dear reader, for each entry below, please note its % Cell Viability at 50 nM.
1. CD98 (CL-huAb104)-WD (antibody, human IgG1, kappa, L234A L235A, V domains shown, synthon WD on reduced interchain cysteines (sites not given)) VH: EVQLVESGGGLVQPGGSLRLSCATSGFTFIDYYMSWVRQAPGKGLEWLGFIRNKAYGYTTEYSASVKGRFTISRDNSKSILYLQMNSLKTEDTAVYYCTRDRPAWFVYWGQGTLVTVSS VL: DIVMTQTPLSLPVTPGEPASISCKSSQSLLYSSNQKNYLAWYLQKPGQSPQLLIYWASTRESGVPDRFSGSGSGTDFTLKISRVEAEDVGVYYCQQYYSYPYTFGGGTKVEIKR
2. CD98 (CL-huAb110)-YY (antibody, human IgG1, kappa, L234A L235A, V domains shown, synthon YY on reduced interchain cysteines (sites not given)) VH: EVQLVQSGAEVKKPGASVKVSCKASGFTFSDYTMAWVRQAPGQGLEWVATIIYDARGTYYRDAVKGRFTITRDNSTSTLYLELSSLRSEDTAVYYCARQSDDTYYYWGYFDYWGQGTMVTVSS VL: DIVMTQTPLSLPVTPGEPASINCKSSQSLLFSGNQKNYLAWYLQKPGQSPQLLIYWASTRQSGVPDRFSGSGSGTDFTLKISRVEAEDVGIYYCQQYYSSPYTFGQGTKLEIKR

output:
1. 16.4
2. 1.9
